experimental-system: Cyclin-dependent kinase 1/cyclin B1 (Homo sapiens) (UniProt P06493+P14635)
Sequence (P06493 whole entry, looked up): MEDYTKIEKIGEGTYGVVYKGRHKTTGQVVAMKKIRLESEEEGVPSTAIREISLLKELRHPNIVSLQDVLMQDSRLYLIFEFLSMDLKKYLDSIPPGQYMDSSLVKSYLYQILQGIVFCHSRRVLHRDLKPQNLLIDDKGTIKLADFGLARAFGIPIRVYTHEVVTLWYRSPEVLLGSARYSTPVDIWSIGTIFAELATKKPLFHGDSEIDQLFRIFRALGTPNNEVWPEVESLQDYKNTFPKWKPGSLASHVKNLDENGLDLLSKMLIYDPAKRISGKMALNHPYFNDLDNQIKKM
Sequence (P14635 whole entry, looked up): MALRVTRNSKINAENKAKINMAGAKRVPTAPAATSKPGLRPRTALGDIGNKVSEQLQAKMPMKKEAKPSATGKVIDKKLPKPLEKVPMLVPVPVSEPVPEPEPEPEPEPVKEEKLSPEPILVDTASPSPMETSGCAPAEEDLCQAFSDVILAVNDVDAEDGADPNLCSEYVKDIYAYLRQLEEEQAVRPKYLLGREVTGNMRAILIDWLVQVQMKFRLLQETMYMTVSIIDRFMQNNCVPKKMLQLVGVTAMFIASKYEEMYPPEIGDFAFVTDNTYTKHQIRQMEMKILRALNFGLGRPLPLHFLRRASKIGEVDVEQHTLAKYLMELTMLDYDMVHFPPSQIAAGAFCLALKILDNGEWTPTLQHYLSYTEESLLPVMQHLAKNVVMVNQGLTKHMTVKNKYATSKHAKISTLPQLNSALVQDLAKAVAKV
test-details: Inhibition of CDK1/cyclin B at 1 uM
Type: protein-complex assay
measured-quantity: inhibition (%)
Use % as the unit, but write only the number.

response.value for O=C(CCCn1[se]c2ccccc2c1=O)N[C@@H]1O[C@H](CO)[C@@H](O)[C@H](O)[C@H]1O (field: inhibition) = 0

response.value for O=c1c2ccccc2[se]n1-c1ccccc1 (field: inhibition) = 0

response.value for CC(=O)OC[C@H]1O[C@@H](O[C@H]2[C@H](OC(C)=O)[C@@H](OC(C)=O)[C@H](n3[se]c4ccccc4c3=O)O[C@@H]2COC(C)=O)[C@H](OC(C)=O)[C@@H](OC(C)=O)[C@H]1OC(C)=O (field: inhibition) = 0

response.value for CC(=O)OC[C@H]1O[C@@H](NC(=O)CCCn2[se]c3ccccc3c2=O)[C@H](OC(C)=O)[C@@H](OC(C)=O)[C@@H]1OC(C)=O (field: inhibition) = 0
